# target_or_system: GABA-A receptor; alpha-1/beta-3/gamma-2 (Homo sapiens) (UniProt P14867+P18507+P28472)
# test_details: Efficacy was determined against gamma-aminobutyric acid A receptor, alpha 1 expressed in Xenopus oocytes
# Format: cell-based
# protocol_conditions: Oocyte
reported_metric: Efficacy (%)
Answers are plain numbers, in %.

Solved cases (5 shown):
>>> recorded_result("Oc1c2c(nn1-c1ccc(Cl)cc1)C1CCCC1N=C2 (stereo unspecified)")
19
>>> recorded_result("COc1ccc(-n2nc3c4c(ncc3c2O)CCCC4)cc1")
15
>>> recorded_result("Oc1c2cnc3c(c2nn1-c1ccccn1)CCCC3")
-39
>>> recorded_result("O=c1c2c[nH]c3c(c-2nn1-c1ccc(Cl)cc1)CCCC3")
12
>>> recorded_result("Oc1c2cnc3c(c2nn1-c1ccc(OC(F)F)cc1)CCCC3")
21

Quick one: give me Efficacy for each item below, same order please.
1. Oc1c2c(nn1-c1ccc(OC(F)F)cc1)C1CSCCC1N=C2 (stereo unspecified)
2. O=C(Cc1cccnc1)N1CCC2N=Cc3c(nn(-c4ccc(Cl)cc4)c3O)C2C1 (stereo unspecified)
3. Oc1c2c(nn1-c1ccc(Cl)cc1)C1CN(CC3CC3)CCC1N=C2 (stereo unspecified)
4. Oc1c2c(nn1-c1ccc(Cl)cc1)C1CN(Cc3ccncc3)CCC1N=C2 (stereo unspecified)
5. Oc1c2cnc3c(c2nn1-c1ccc(OC2CCC2)cc1)CCCC3

Result:
9
49
111
131
49

Request: I would be grateful if you could share the reported Efficacy for Oc1c2cnc3c(c2nn1-c1ccc(OC2CC2)cc1)CCCC3 .
Result: 19
